Entries and their relative viability values follow.
Test system: NCI-H2126
test: relative viability (nuclei count vs DMSO), 5 days (fraction); higher = more cells survive
measurementSetup: first compound 0.000632 µM

>  <compound>
CC(=O)O[C@@]12CO[C@@H]1C[C@H](O)[C@@]1(C)C(=O)[C@H](O)C3=C(C)[C@@H](OC(=O)[C@H](O)[C@@H](NC(=O)OC(C)(C)C)c4ccccc4)C[C@@](O)([C@@H](OC(=O)c4ccccc4)[C@H]21)C3(C)C [Docetaxel] + CS(=O)(=O)CCNCc1ccc(-c2ccc3ncnc(Nc4ccc(OCc5cccc(F)c5)c(Cl)c4)c3c2)o1 [Lapatinib] (partner 2 µM)

>  <relative viability>
0.683

$$$$
>  <compound>
CC(=O)O[C@@]12CO[C@@H]1C[C@H](O)[C@@]1(C)C(=O)[C@H](O)C3=C(C)[C@@H](OC(=O)[C@H](O)[C@@H](NC(=O)OC(C)(C)C)c4ccccc4)C[C@@](O)([C@@H](OC(=O)c4ccccc4)[C@H]21)C3(C)C [Docetaxel] + C[C@@H](Oc1cc(-c2cnn(C3CCNCC3)c2)cnc1N)c1c(Cl)ccc(F)c1Cl [Crizotinib] (partner 1 µM)

>  <relative viability>
1.03

$$$$
>  <compound>
CC(=O)O[C@@]12CO[C@@H]1C[C@H](O)[C@@]1(C)C(=O)[C@H](O)C3=C(C)[C@@H](OC(=O)[C@H](O)[C@@H](NC(=O)OC(C)(C)C)c4ccccc4)C[C@@](O)([C@@H](OC(=O)c4ccccc4)[C@H]21)C3(C)C [Docetaxel] + N=C(N)NC(=N)NCCc1ccccc1 [Phenformin] (partner 250 µM)

>  <relative viability>
0.468

$$$$
>  <compound>
CC(=O)O[C@@]12CO[C@@H]1C[C@H](O)[C@@]1(C)C(=O)[C@H](O)C3=C(C)[C@@H](OC(=O)[C@H](O)[C@@H](NC(=O)OC(C)(C)C)c4ccccc4)C[C@@](O)([C@@H](OC(=O)c4ccccc4)[C@H]21)C3(C)C [Docetaxel] + Cc1nc(NC(=O)N2CCC[C@H]2C(N)=O)sc1-c1ccnc(C(C)(C)C(F)(F)F)c1 [Alpelisib] (partner 2 µM)

>  <relative viability>
0.753

$$$$
>  <compound>
CC(=O)O[C@@]12CO[C@@H]1C[C@H](O)[C@@]1(C)C(=O)[C@H](O)C3=C(C)[C@@H](OC(=O)[C@H](O)[C@@H](NC(=O)OC(C)(C)C)c4ccccc4)C[C@@](O)([C@@H](OC(=O)c4ccccc4)[C@H]21)C3(C)C [Docetaxel] + C[C@]1(O)C[C@@H](c2nc(-c3ccc4ccc(-c5ccccc5)nc4c3)c3c(N)nccn32)C1 [Linsitinib] (partner 1 µM)

>  <relative viability>
0.683

$$$$
>  <compound>
CC(=O)O[C@@]12CO[C@@H]1C[C@H](O)[C@@]1(C)C(=O)[C@H](O)C3=C(C)[C@@H](OC(=O)[C@H](O)[C@@H](NC(=O)OC(C)(C)C)c4ccccc4)C[C@@](O)([C@@H](OC(=O)c4ccccc4)[C@H]21)C3(C)C [Docetaxel] + O=C(c1cc(Cc2n[nH]c(=O)c3ccccc23)ccc1F)N1CCN(C(=O)C2CC2)CC1 [Olaparib] (partner 8 µM)

>  <relative viability>
0.861

$$$$

* * *

System: NCI-H1792
test: relative viability (nuclei count vs DMSO), 5 days (fraction); higher = more cells survive
measurementSetup: first compound 0.253 µM
Entries and their relative viability values follow.

>  <molecule>
O=c1[nH]c2ccccc2n1C1CCN(CCCC(c2ccc(F)cc2)c2ccc(F)cc2)CC1 [Pimozide] + CC(=O)c1c(C)c2cnc(Nc3ccc(N4CCNCC4)cn3)nc2n(C2CCCC2)c1=O [Palbociclib] (partner 0.5 µM)

>  <relative viability>
0.635

$$$$
>  <molecule>
O=c1[nH]c2ccccc2n1C1CCN(CCCC(c2ccc(F)cc2)c2ccc(F)cc2)CC1 [Pimozide] + CCNC(=O)c1noc(-c2cc(C(C)C)c(O)cc2O)c1-c1ccc(CN2CCOCC2)cc1 [Luminespib] (partner 0.01 µM)

>  <relative viability>
0.424

$$$$
>  <molecule>
O=c1[nH]c2ccccc2n1C1CCN(CCCC(c2ccc(F)cc2)c2ccc(F)cc2)CC1 [Pimozide] + CS(=O)(=O)N1CCN(Cc2cc3nc(-c4cccc5[nH]ncc45)nc(N4CCOCC4)c3s2)CC1 [Pictilisib] (partner 1 µM)

>  <relative viability>
0.292

$$$$
>  <molecule>
O=c1[nH]c2ccccc2n1C1CCN(CCCC(c2ccc(F)cc2)c2ccc(F)cc2)CC1 [Pimozide] + CC1(C)CCC(c2ccc(Cl)cc2)=C(CN2CCN(c3ccc(C(=O)NS(=O)(=O)c4ccc(N[C@H](CCN5CCOCC5)CSc5ccccc5)c(S(=O)(=O)C(F)(F)F)c4)cc3)CC2)C1 [Navitoclax] (partner 0.5 µM)

>  <relative viability>
0.629

$$$$
>  <molecule>
O=c1[nH]c2ccccc2n1C1CCN(CCCC(c2ccc(F)cc2)c2ccc(F)cc2)CC1 [Pimozide] + CS(=O)(=O)CCNCc1ccc(-c2ccc3ncnc(Nc4ccc(OCc5cccc(F)c5)c(Cl)c4)c3c2)o1 [Lapatinib] (partner 2 µM)

>  <relative viability>
0.784

$$$$
